Values were extracted from paper PMC7600403.

# Tested on: WM164
# ASSAY NOTES: MTT assay, inhibitory effect of RB in different delivery systems
# Assay type: cell-based, human
# CONDITION INFO: RB and encapsulated RB, WM164, 48 h incubation; concentration of RB, mean (95% CI), n = minimum of 4; vehicle concentration constant
# Protocol: Human melanoma cell lines (WM164, WM1366, and D24), spontaneously immortalized normal human keratinocytes (HaCaT), and primary skin fibroblast cells were kindly provided by A/Prof. Helmut Schaider’s laboratory (University of Queensland Diamantina Institute). […] The MTT cell viability assay was also used as a proxy measure for cell proliferation. […] After a specific period, cell viability was evaluated by MTT assay. […]
PROPERTY LABEL: IC50 (µM)
State the answer as a number, implicitly in µM.

If you can, please state the reported IC50 value of O=C([O-])c1c(Cl)c(Cl)c(Cl)c(Cl)c1-c1c2cc(I)c(=O)c(I)c-2oc2c(I)c([O-])c(I)cc12.[Na+].[Na+] [RB] . 103
